The values you see were collected from paper PMC5735092.

target: IMPα/β1:C (Mus musculus, UniProt P52293)
measured-endpoint: IC50

[[record]]
input_smiles = "O=C(c1cc(C(=O)N2CCN(c3cccc(Cl)c3)CC2)cc(C(=O)N2CCN(c3cccc(Cl)c3)CC2)c1)N1CCN(c2cccc(Cl)c2)CC1"
result = "32 µM"

